- measuredOn: human HER2 (23-652) (Homo sapiens, UniProt P04626)
- measurementProtocol: Surface plasmon resonance (SPR) for assessment of peptide affinity, human HER2
- Type: binding
- Design: towards human HER2 (23-652) and mouse HER2 (23-653); made in house
- assayContext: SPR, human HER2 extracellular domain, 25° C., 1:1 binding model; read-out: huHER2-SPR-ONC KD
Positions of bridges follow the written chain, without caps; N, C: chain ends. Non-standard residues stand in square brackets, D forms with d. Residues, ends and D or L forms follow the SMILES beside them. Trp(5-OH) = N[C@@H](Cc1c[nH]c2ccc(O)cc12)C(=O)O; NMePhe(4-F) = CN[C@@H](Cc1ccc(F)cc1)C(=O)O; NMehPhe = CN[C@@H](CCc1ccccc1)C(=O)O; Aad = N[C@@H](CCCC(=O)O)C(=O)O; Gly(cPr) = N[C@H](C(=O)O)C1CC1; NMeDap = CN[C@@H](CN)C(=O)O; NMeS = CN[C@@H](CO)C(=O)O
readoutType: pKd
pKd here: minus log base 10 of the concentration, concentration in moles per litre.

Query: Sample CC(=O)N[C@H]1CCC(=O)NC[C@@H](C(=O)N(C)[C@@H](Cc2ccc(F)cc2)C(N)=O)N(C)C(=O)[C@H](C2CC2)NC(=O)[C@H](Cc2c[nH]c3ccccc23)NC(=O)[C@H](Cc2c[nH]c3ccc(O)cc23)NC(=O)[C@H](CO)N(C)C(=O)[C@H](CCc2ccccc2)N(C)C(=O)[C@H](CCCC(=O)O)NC(=O)[C@H](Cc2ccc(O)cc2)NC1=O [Example A27] (Ac-EY[Aad][NMehPhe][NMeS][Trp(5-OH)]W[Gly(cPr)][NMeDap][NMePhe(4-F)]-NH2; lactam 1-9) — what was its pKd?
Result: 6.61

Query: Further, for CC(=O)N[C@H]1CCC(=O)NC[C@@H](C(=O)N(C)[C@@H](Cc2ccc(F)cc2)C(=O)N2CCC[C@H]2C(N)=O)N(C)C(=O)[C@H](C2CC2)NC(=O)[C@H](Cc2c[nH]c3ccccc23)NC(=O)[C@H](Cc2c[nH]c3ccc(O)cc23)NC(=O)[C@H](CO)N(C)C(=O)[C@H](CCc2ccccc2)N(C)C(=O)[C@H](CO)NC(=O)[C@H](Cc2ccc(O)cc2)NC1=O ?
Result: 7.51
